# Test system: EKVX NSCLC
# ASSAY_INFO: NCI tumour cell line growth inhibition, 48 h
// reported TGI per item
RECORDED_ENDPOINT: TGI

>  <COMPOUND>
CC1(C)OC2C(CO[Si](C)(C)C(C)(C)C)OC(n3c(I)c(C#C[Si](C)(C)C)c(=O)[nH]c3=O)C2O1 (configuration not stated)

>  <RECORDED_ENDPOINT>
TGI

>  <RESULT>
> 100 µM

$$$$
>  <COMPOUND>
COc1cc(OC)cc(C(=O)CC(=O)c2cc(OC)cc(OC)c2)c1

>  <RECORDED_ENDPOINT>
TGI

>  <RESULT>
> 100 µM

$$$$
>  <COMPOUND>
CN(C)C1CCN(C(=O)c2ccc(NC(=O)Nc3ccc(-c4nc(N5CCOCC5)c5cccn5n4)cc3)cc2)CC1

>  <RECORDED_ENDPOINT>
TGI

>  <RESULT>
3.46 µM

$$$$
>  <COMPOUND>
Clc1cc2c(c(CSc3nc4ccccc4n4cccc34)c1)OCOC2

>  <RECORDED_ENDPOINT>
TGI

>  <RESULT>
> 100 µM

$$$$
>  <COMPOUND>
C/C(C[n+]1ccccc1)=N\N=C(N)N

>  <RECORDED_ENDPOINT>
TGI

>  <RESULT>
> 100 µM

$$$$
>  <COMPOUND>
Nc1ncn([C@@H]2O[C@H](CO)[C@@H](O)[C@H]2O)c(=O)n1

>  <RECORDED_ENDPOINT>
TGI

>  <RESULT>
> 100 µM

$$$$
>  <COMPOUND>
Cc1cc(N[C@@H]2CCC[C@H](Nc3ccnc4cc(Cl)ccc34)C2)nc(N2CCCCCC2)n1

>  <RECORDED_ENDPOINT>
TGI

>  <RESULT>
3.84 µM

$$$$

###

# System: HCC-2998 colon
# ASSAY_INFO: NCI tumour cell line growth inhibition, 48 h
RECORDED_ENDPOINT: TGI

>  <MOLECULE>
Cc1ccccc1C(=O)c1cc(O)ccc1O

>  <RESULT>
> 100 µM

$$$$
>  <MOLECULE>
CCOC(=O)N[C@H]1CCc2cc(OC)c(OC)c(OC)c2-c2ccc(SC)c(=O)cc21

>  <RESULT>
> 69.6 µM

$$$$
>  <MOLECULE>
Cc1c2cc[n+](C)c(C)c2cc2c1[nH]c1ccccc12

>  <RESULT>
32.2 µM

$$$$
>  <MOLECULE>
COC(=O)/C(=C/c1ccc(OC)cc1)C(C(=O)O)=C1CCCC1

>  <RESULT>
> 100 µM

$$$$
>  <MOLECULE>
C=C(C(=O)OCC)C(=O)OCC

>  <RESULT>
> 100 µM

$$$$
>  <MOLECULE>
O=C(NC[C@H](O)CN1CCc2ccccc2C1)c1cc(NC2COC2)ncn1

>  <RESULT>
29.8 µM

$$$$
>  <MOLECULE>
COC(=O)[C@]12CC[C@@H](C)[C@H](C)[C@@H]1C1=CC[C@@H]3[C@@]4(C)C[C@@H](O)[C@H](O)[C@@](C)(CO)C4=CC[C@@]3(C)[C@]1(C)CC2

>  <RESULT>
34.8 µM

$$$$
>  <MOLECULE>
CC1(C)OC[C@@H](O)[C@H](C#N)CO1

>  <RESULT>
> 100 µM

$$$$
>  <MOLECULE>
O=[N+]([O-])C(=C(Nc1cccc2cccnc12)Nc1cccc2cccnc12)C(Cl)=C(Cl)Cl

>  <RESULT>
> 100 µM

$$$$
>  <MOLECULE>
COC1C(OC(=S)Nc2ccccc2)c2ccccc2N1C(C)=O (configuration not stated)

>  <RESULT>
> 100 µM

$$$$
>  <MOLECULE>
S=c1[nH]c(=S)c2cc3ccccc3nc2[nH]1

>  <RESULT>
> 100 µM

$$$$
>  <MOLECULE>
O=C(/C=C/c1ccc[nH]1)c1ccc(-n2ccc(C(F)(F)F)n2)cc1

>  <RESULT>
> 100 µM

$$$$
>  <MOLECULE>
CCOC(=O)c1cccc(N=Nc2nc[nH]c2/C=C/C(=O)OC)c1

>  <RESULT>
28.2 µM

$$$$
>  <MOLECULE>
CC1=Cc2cccc(C)c2C(=O)C1=O

>  <RESULT>
27.8 µM

$$$$
>  <MOLECULE>
CC(=O)Nc1ccc(-c2csc(Nc3cccc(-c4csc(C)n4)c3)n2)cc1

>  <RESULT>
8.98 µM

$$$$
>  <MOLECULE>
COc1ccc2c(c1OCC(=O)O)C(=O)C(CCC(=O)O)CC2 (configuration not stated)

>  <RESULT>
> 100 µM

$$$$
>  <MOLECULE>
O=C(/C=C/c1ccccc1)Oc1ccc(C(=O)/C=C/c2ccccc2)cc1

>  <RESULT>
15.3 µM

$$$$
>  <MOLECULE>
O=C1c2ccccc2C(=O)N1n1c(Cc2ccc([N+](=O)[O-])cc2)n[nH]c1=O

>  <RESULT>
> 100 µM

$$$$
>  <MOLECULE>
CCOC(=O)C1S/C(=N\C(=N)N[N+](=O)[O-])N=C1C (configuration not stated)

>  <RESULT>
> 100 µM

$$$$
>  <MOLECULE>
CCOS(C)(=O)=O

>  <RESULT>
> 100 µM

$$$$
>  <MOLECULE>
COc1ccc(-c2nnc3n(C)c(=O)c4ccccc4n23)cc1N

>  <RESULT>
> 100 µM

$$$$
>  <MOLECULE>
O=C(CC1C(=O)Nc2ccccc2S1=O)Nc1cc(Cl)ccc1Cl (configuration not stated)

>  <RESULT>
> 100 µM

$$$$
